B1: library; numbered along this chain (parent)
chain: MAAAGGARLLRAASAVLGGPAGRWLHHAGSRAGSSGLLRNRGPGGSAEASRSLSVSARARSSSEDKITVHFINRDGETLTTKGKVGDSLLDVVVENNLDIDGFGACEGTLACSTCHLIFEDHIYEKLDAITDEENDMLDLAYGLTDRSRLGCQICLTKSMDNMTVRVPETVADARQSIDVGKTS

- Variants of: B1
- TEST SUMMARY: scaled log2 fold change in cell abundance, elesclomol vs control (0 = silent mean, 1 = nonsense mean) (scaled log2 ratio); higher = higher viability under elesclomol (loss of FDX1 cuproptosis function);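 note: variant abundance is its share of total variant reads in each endpoint sample, from next-generation sequencing of the integrated ORF PCR-amplified out of genomic DNA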
- COND: with HEK293T FDX1 KO; elesclomol 40 nM; glucose 10 mM; 11 days
Let's look at some variants and their measured scaled log2 fold change.
Please respond with just the number, no unit label.

Please review the following examples before continuing.
R31W | -0.246
G33Q | -0.043
R149Y | 0.839
D179R | -0.221
G108A | 1.08
C152A | 1.33

`V165N` yielded scaled log2 fold change of 1.02

`G181R` yielded scaled log2 fold change of 0.814

`G33F` yielded scaled log2 fold change of 0.637

`V180C` yielded scaled log2 fold change of 0.216

`G36T` yielded scaled log2 fold change of 0.704

`A3Q` yielded scaled log2 fold change of -0.249

`R74Q` yielded scaled log2 fold change of -0.599

`S148V` yielded scaled log2 fold change of 0.35

`Q153M` yielded scaled log2 fold change of -0.595

`A2N` yielded scaled log2 fold change of 0.135

`E77S` yielded scaled log2 fold change of 0.00555

`K158Y` yielded scaled log2 fold change of -1.33

`C115H` yielded scaled log2 fold change of 1.29

`S30H` yielded scaled log2 fold change of 0.106

`V55M` yielded scaled log2 fold change of 0.955

// provenance: the supplement of paper PMC12855868
